Test system: L1210
ASSAY_NAME: Cytotoxicity against murine L1210 cells.
Format: functional, cell-based
CONDITION_INFO: Mus musculus
I'd appreciate it if you marked entries TRUE when IC50 is lower than 4 µM and FALSE when it is not.

>  <QUERY_SMILES>
O=C1/C(=C/c2ccc(Cl)c(Cl)c2)CNC/C1=C\c1ccc(Cl)c(Cl)c1

>  <CLASS_NAME>
FALSE

$$$$
>  <QUERY_SMILES>
C=CC(=O)N1C/C(=C\c2ccc(Cl)c(Cl)c2)C(=O)/C(=C/c2ccc(Cl)c(Cl)c2)C1

>  <CLASS_NAME>
TRUE

$$$$
>  <QUERY_SMILES>
C=CC(=O)N1C/C(=C\c2ccc(OC)cc2)C(=O)/C(=C/c2ccc(OC)cc2)C1

>  <CLASS_NAME>
FALSE

$$$$
>  <QUERY_SMILES>
O=C1/C(=C/c2ccc(N3CC3)cc2)CNC/C1=C\c1ccc(N2CC2)cc1

>  <CLASS_NAME>
FALSE

$$$$

---

System: L1210
ASSAY_NAME: Cytotoxicity against murine L1210 cells.
Format: functional, cell-based
CONDITION_INFO: Mus musculus
pIC50: −log10 of the molar value.
Measured pIC50 by item

>  <QUERY_SMILES>
C=CC(=O)N1C/C(=C\c2ccc([N+](=O)[O-])cc2)C(=O)/C(=C/c2ccc([N+](=O)[O-])cc2)C1

>  <RELATION_QUALIFIER>
=

>  <pIC50>
6.38

$$$$
>  <QUERY_SMILES>
C=CC(=O)N1C/C(=C\c2ccc(N3CC3)cc2)C(=O)/C(=C/c2ccc(N3CC3)cc2)C1

>  <RELATION_QUALIFIER>
<

>  <pIC50>
3.30

$$$$
>  <QUERY_SMILES>
C=CC(=O)N1C/C(=C\c2ccccc2)C(=O)/C(=C/c2ccccc2)C1

>  <RELATION_QUALIFIER>
=

>  <pIC50>
5.06

$$$$
>  <QUERY_SMILES>
C=CC(=O)N1C/C(=C\c2ccc(Cl)cc2)C(=O)/C(=C/c2ccc(Cl)cc2)C1

>  <RELATION_QUALIFIER>
=

>  <pIC50>
5.71

$$$$
>  <QUERY_SMILES>
O=C1/C(=C/c2ccc([N+](=O)[O-])cc2)CNC/C1=C\c1ccc([N+](=O)[O-])cc1

>  <RELATION_QUALIFIER>
=

>  <pIC50>
4.48

$$$$

---

ASSAY_NAME: Cytotoxicity against human Molt 4/C8 cells.
Format: functional, cell-based
CONDITION_INFO: Molt4/C8
pIC50: −log10 of the molar value.
OBSERVED_PROPERTY: pIC50

>  <QUERY_SMILES>
C=CC(=O)N1C/C(=C\c2ccc(N3CC3)cc2)C(=O)/C(=C/c2ccc(N3CC3)cc2)C1

>  <REPORTED_VALUE>
3.43

$$$$
>  <QUERY_SMILES>
C=CC(=O)N1C/C(=C\c2ccc(Cl)c(Cl)c2)C(=O)/C(=C/c2ccc(Cl)c(Cl)c2)C1

>  <REPORTED_VALUE>
5.98

$$$$
>  <QUERY_SMILES>
C=CC(=O)N1C/C(=C\c2ccc([N+](=O)[O-])cc2)C(=O)/C(=C/c2ccc([N+](=O)[O-])cc2)C1

>  <REPORTED_VALUE>
6.82

$$$$
>  <QUERY_SMILES>
C=CC(=O)N1C/C(=C\c2ccc(Cl)cc2)C(=O)/C(=C/c2ccc(Cl)cc2)C1

>  <REPORTED_VALUE>
6.36

$$$$
>  <QUERY_SMILES>
O=C1/C(=C/c2ccc(Cl)c(Cl)c2)CNC/C1=C\c1ccc(Cl)c(Cl)c1

>  <REPORTED_VALUE>
4.40

$$$$
>  <QUERY_SMILES>
C=CC(=O)N1C/C(=C\c2ccc(OC)cc2)C(=O)/C(=C/c2ccc(OC)cc2)C1

>  <REPORTED_VALUE>
5.64

$$$$
>  <QUERY_SMILES>
O=C1/C(=C/c2ccc(N3CC3)cc2)CNC/C1=C\c1ccc(N2CC2)cc1

>  <REPORTED_VALUE>
3.65

$$$$
>  <QUERY_SMILES>
C=CC(=O)N1C/C(=C\c2ccccc2)C(=O)/C(=C/c2ccccc2)C1

>  <REPORTED_VALUE>
5.85

$$$$
>  <QUERY_SMILES>
C=CC(=O)N1C/C(=C\c2ccc(F)cc2)C(=O)/C(=C/c2ccc(F)cc2)C1

>  <REPORTED_VALUE>
6.39

$$$$
>  <QUERY_SMILES>
O=C1/C(=C/c2ccc([N+](=O)[O-])cc2)CNC/C1=C\c1ccc([N+](=O)[O-])cc1

>  <REPORTED_VALUE>
5.08

$$$$

Where do the numbers come from? From ChEMBL document CHEMBL1134837.
